Give measured protease stability score for each item. Keep answers brief.
Test: protease stability score; higher = more stable; yeast display proteolysis, trypsin and chymotrypsin;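 note: relative to predicted unfolded state with 0 unfolded-like and 1 meaning tenfold more protease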
Could you keep your reply to the number by itself?

Entry under review: DEERKIAEKFAELYQHWEHTGNEDEMRSFFDPNYRLFVGEKEFVGRKTRSRWHREYIEKLGVDHVEIQDYRVQGNFVESDLVLRFNGREVKTEIRINVIDGRIKEVHIITH . Reported protease stability score?
0.198

// lookup protease stability score for TEEENMNEENLDLAVHLMHTGDEEHLFDRLDPHARLEYGDKKYHGREIVEEVLLTLIRELGVDHIRVRRVKFVGDKLHIDSEFTVGDKVFRLHLVARKINGRWWLHSMRVQ
1.34

Value lookup for protease stability score; key = DEEEELAIEVVQRWVEDFLTGDFRSFRELADPNTKTRINGQEMHGRHVYVEWFVKWLKQIDHHDFKLHDVKVINGQVHTDGEMRLEVNGREHRSRVELILVIINGRLHMVELRIK
2.13

State the recorded protease stability score for this entry: DEDHDIIREALERWRHYVHTGDWRSLLKMMDPHVRNDVDGVDIIGREEASRYYREVFERLGVDHIDIHLRDMQIQGDKVTVHSELELNYNGRRFMHDIEIISVKVDGRWSIRSVFSK
1.41

Form field: reported protease stability score of SEEEHLLKFFLDVLMDLHSTGDERKLYELFDPNVRIEYDGKETHGRERAREQFQEMRVRVEHVHIKDLTLQGDKVIIDTKVDMTIHIDGKTIREDRKLQVDFDKVDGRWTVHELIFR
1.13

Request the reported protease stability score associated with NEDEENMKKLLEDFLESLLTGDFDKLTRLADPHARIVQGDKELHGRDEIHEFWKRTMEHIRITHSYVREIDIINGRLHTDIHWDLQVGDKRYSHRVELILLKIDGKWVLHEVEFR
1.27

###

Can you tell me protease stability score for the items I'm about to list?
Test: protease stability score; higher = more stable; yeast display proteolysis, trypsin and chymotrypsin;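 note: relative to predicted unfolded state with 0 unfolded-like and 1 meaning tenfold more protease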

If you can, please state the reported protease stability score value of SDEEENLKEWVRLMYESARTGDEDSTSHLIDPNVRIHVNGRELHGRELVLEHLRRIDHVELRIHIREVETYDGRLKVEGELREIMIFNGKRVDLRIDTVFINLKVNGRWVLKEVHII .
1.34

Can you share its protease stability score? I mean this sequence: REQEELMREYYEIHTHVLKTGNEDALEKLLDPNVRIHIDGKELHGMEAWEILNKRFDHIRHSHIHDFRIIGDKLHIDGRQKGVVDGVEREVHVHIVIEKIDGRWKLKSFYFR
1.2

What value of measured protease stability score is listed for DEHEELMEEFMRKILHAWLTGDWDLINEMADPDVRTNINGRNEIGREEFEKLWQEIRFRRFDLKRWHVFNGVIHIDGHIDGEVNGRRTKRDVLIRLFIFNGRLKKEEVEYL ?
1.55

Name the reported protease stability score value associated with the sequence SESEEEARKVIERLFRAERTGDEDDVKHLLDPNVKIDWNGRKYHGRDDWAHYISHLGIDHSELIIKHLEYQGDKLRLHGILRYVIGDKTIEEEVFEHMQKINGRWRIREIHIK
1.64

// lookup protease stability score for DEERKEFEEVFRQWIHALRTGDEDSELRNLDPNARIVVGDKEVHGREESERYLRETLHRADHMDFELHRLDVQGDKVHIDGTMILVVNGQEIRYRIHFISVKIDGRWLLRSVIIH
1.86

Need protease stability score of SDLHHIVDNLLQEWLHARLTGDEDRLLELMDPDAREDVNGRTLVGREDSWKIMLELRFRVEHWHIHRLEIQGDKIDMDIEFDVRFDVDGVPYRLRTRQKIHIDVYNGKIQRLQVHIL , thanks.
0.325

Entry source: the NTF2 design screens of Basanta et al. (2020)
